Cited source for all entries: patent US20040152674A1

- Test system: S. aureus ATCC12715
- assay.details: MIC by broth dilution method (Table 4)
- Type: cell-based
- Design: unit not given here
- experimental.setup: S. aureus Tc^r ATCC12715; 18 hours
Returns one of yes (1) or no (0); yes (1) when Antibacterial activity (minimum inhibitory concentration) is >= 2.

{"compound": "CC1c2ccc(C(C)(C)CCCN(C)C)c(O)c2C(=O)C2=C(O)[C@]3(O)C(=O)C(C(N)=O)=C(O)[C@@H](N(C)C)C3C(O)C21 (stereo partly drawn) [J]", "label.class": "yes (1)"}
{"compound": "CC1c2ccc(C3(C)CCC3)c(O)c2C(=O)C2=C(O)[C@]3(O)C(=O)C(C(N)=O)=C(O)[C@@H](N(C)C)C3C(O)C21 (stereo partly drawn) [G]", "label.class": "yes (1)"}
{"compound": "CC1c2ccc(C(C)(C)CCCBr)c(O)c2C(=O)C2=C(O)[C@]3(O)C(=O)C(C(N)=O)=C(O)[C@@H](N(C)C)C3C(O)C21 (stereo partly drawn) [I]", "label.class": "no (0)"}
{"compound": "CC1c2ccc(C3(C)CCCC3)c(O)c2C(=O)C2=C(O)C3(O)C(=O)C(C(N)=O)=C(O)C(N(C)C)C3C(O)C21 (stereo not drawn) [F]", "label.class": "no (0)"}
{"compound": "CC(=O)OC(CCC(C)C)c1ccc2c(c1O)C(=O)C1=C(O)C3(O)C(=O)C(C(N)=O)=C(O)C(N(C)C)C3C(O)C1C2C (stereo not drawn) [Compound N]", "label.class": "no (0)"}
{"compound": "CC1c2ccc(C(C)(C)C)c(O)c2C(=O)C2=C(O)[C@]3(O)C(=O)C(C(N)=O)=C(O)[C@@H](N(C)C)C3C(OC(=O)C3CCC3)C21 (stereo partly drawn) [D]", "label.class": "yes (1)"}
{"compound": "CC1c2ccc(C(C)(C)C)c(O)c2C(=O)C2=C(O)[C@]3(O)C(=O)C(C(N)=O)=C(O)[C@@H](N(C)C)C3C(O)C21 (stereo partly drawn) [A]", "label.class": "yes (1)"}
{"compound": "CCCC(C)(C)c1ccc2c(c1O)C(=O)C1=C(O)[C@]3(O)C(=O)C(C(N)=O)=C(O)[C@@H](N(C)C)C3C(O)C1C2C (stereo partly drawn) [H]", "label.class": "no (0)"}
{"compound": "C[C@H]1c2cccc(O)c2C(=O)C2=C(O)[C@]3(O)C(=O)C(C(N)=O)=C(O)[C@@H](N(C)C)C3[C@@H](O)C21 (stereo partly drawn) [Doxycycline, reference compound]", "label.class": "yes (1)"}
{"compound": "CC1c2ccc(C(C)(C)CCC[N+](=O)[O-])c(O)c2C(=O)C2=C(O)[C@]3(O)C(=O)C(C(N)=O)=C(O)[C@@H](N(C)C)C3C(O)C21 (stereo partly drawn) [M]", "label.class": "no (0)"}
{"compound": "CC1c2ccc(C(C)(C)CCCC#N)c(O)c2C(=O)C2=C(O)C3(O)C(=O)C(C(N)=O)=C(O)C(N(C)C)C3C(O)C21 (stereo not drawn) [L]", "label.class": "yes (1)"}
{"compound": "CC(=O)OC1C2C(=C(O)C3(O)C(=O)C(C(N)=O)=C(O)C(N(C)C)C13)C(=O)c1c(ccc(C(C)(C)C)c1O)C2C (stereo not drawn) [C]", "label.class": "no (0)"}
{"compound": "CC1c2ccc(C(C)(C)CCCN3CCCC3)c(O)c2C(=O)C2=C(O)[C@]3(O)C(=O)C(C(N)=O)=C(O)[C@@H](N(C)C)C3C(O)C21 (stereo partly drawn) [K]", "label.class": "yes (1)"}
{"compound": "CC1c2ccc(C3(C)CCCCC3)c(O)c2C(=O)C2=C(O)[C@]3(O)C(=O)C(C(N)=O)=C(O)[C@@H](N(C)C)C3C(O)C21 (stereo partly drawn) [E]", "label.class": "yes (1)"}
{"compound": "CCC(=O)OC1C2C(=C(O)C3(O)C(=O)C(C(N)=O)=C(O)C(N(C)C)C13)C(=O)c1c(ccc(C(C)(C)C)c1O)C2C (stereo not drawn) [B]", "label.class": "no (0)"}
